Record form. Attribute: protein stability index. Fill in for each entry.
B1: SOAT1 (parent)
chain: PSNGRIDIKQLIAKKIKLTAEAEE

Variants of: B1
ASSAY REMARKS: protein stability index of a GFP-peptide fusion (GPS, HEK-293T) (PSI 1-6); higher = more stable;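 note: lentivirally expressed fusions sorted by FACS into six bins by GFP to DsRed ratio, PSI derived from sequencing read proportions per bin multiplied by bin number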
APPLIED CONDITIONS: c terminus: a fixed tail appended
Number only, no unit.

// recorded protein stability index for E24W : 2.44

// recorded protein stability index for Q10Y : 2.43

// recorded protein stability index for I8V : 3.88

// recorded protein stability index for P1F : 3.22

// recorded protein stability index for K17A : 3.67

// recorded protein stability index for Q10G : 3.59

// recorded protein stability index for A20L : 3.1

// recorded protein stability index for A22N : 3.32

// recorded protein stability index for E24H : 2.94

// recorded protein stability index for L18V : 3.53

// recorded protein stability index for K15R : 2.88
